Taken from patent US20210206877A1.

# maps each entry to its % inhibition, FRET short substrate assay (negative = activation)
Target: murine BACE1 ECD; note: test concentration or dose not given here
Sequence (single chain, as listed by the source limits assumed): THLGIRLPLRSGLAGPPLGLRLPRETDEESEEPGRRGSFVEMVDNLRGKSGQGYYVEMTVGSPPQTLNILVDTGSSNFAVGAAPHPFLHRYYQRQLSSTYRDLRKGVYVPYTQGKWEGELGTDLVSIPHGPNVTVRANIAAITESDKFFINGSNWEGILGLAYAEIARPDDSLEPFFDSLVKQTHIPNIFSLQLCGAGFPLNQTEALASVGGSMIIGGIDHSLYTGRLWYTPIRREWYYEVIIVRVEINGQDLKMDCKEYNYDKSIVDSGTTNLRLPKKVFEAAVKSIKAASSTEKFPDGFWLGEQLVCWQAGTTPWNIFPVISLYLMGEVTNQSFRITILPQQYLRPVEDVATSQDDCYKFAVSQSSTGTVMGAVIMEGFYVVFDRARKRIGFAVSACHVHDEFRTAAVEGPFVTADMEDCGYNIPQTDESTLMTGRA
Assay: cell-based or functional assay
Give the number; % is assumed, so skip it.

5897 (antibody, V domains shown) VH: QLQLQESGPGLVKPSETLSLTCTVSGGSISWSSYYWSWIRQPPGKGLEWIGSIYKSGRTYYNPSLKSRVTISVDTSKNQFSLKLSSVTAADTAVYYCARVGHGISYFDLWGRGTLVTVSS VL: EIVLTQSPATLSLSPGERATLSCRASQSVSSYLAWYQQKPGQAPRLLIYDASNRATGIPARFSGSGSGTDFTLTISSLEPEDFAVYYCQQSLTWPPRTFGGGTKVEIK | -3
5572 (antibody, V domains shown) VH: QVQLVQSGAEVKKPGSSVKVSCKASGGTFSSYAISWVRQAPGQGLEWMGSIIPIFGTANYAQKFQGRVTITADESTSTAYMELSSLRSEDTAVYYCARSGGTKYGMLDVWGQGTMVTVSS VL: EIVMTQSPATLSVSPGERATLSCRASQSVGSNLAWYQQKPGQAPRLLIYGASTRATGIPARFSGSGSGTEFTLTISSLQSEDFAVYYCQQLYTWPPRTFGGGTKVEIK | 77

Q. Tell me its % inhibition, FRET short substrate assay (negative = activation) given 5893 (antibody, V domains shown) VH: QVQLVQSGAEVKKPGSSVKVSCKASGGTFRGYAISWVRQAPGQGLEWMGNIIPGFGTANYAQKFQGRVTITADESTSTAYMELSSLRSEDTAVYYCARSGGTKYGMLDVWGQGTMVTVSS VL: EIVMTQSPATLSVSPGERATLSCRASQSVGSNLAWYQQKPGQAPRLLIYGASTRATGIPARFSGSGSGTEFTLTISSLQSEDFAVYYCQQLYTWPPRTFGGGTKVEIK as the entry.
A. 69

Q. Look up and state reported % inhibition, FRET short substrate assay (negative = activation) for 5905 (antibody, V domains shown) VH: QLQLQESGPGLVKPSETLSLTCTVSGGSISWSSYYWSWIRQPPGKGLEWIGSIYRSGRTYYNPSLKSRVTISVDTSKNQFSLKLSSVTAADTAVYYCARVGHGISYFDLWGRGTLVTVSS VL: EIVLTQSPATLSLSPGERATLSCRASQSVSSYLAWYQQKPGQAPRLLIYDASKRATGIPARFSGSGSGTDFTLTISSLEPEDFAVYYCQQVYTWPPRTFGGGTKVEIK
A. 72

Q. Return % inhibition, FRET short substrate assay (negative = activation) (reported value) for this binder: 5876 (antibody, V domains shown) VH: EVQLLESGGGLVQPGGSLRLSCAASGFTFSSRAMGWVRQAPGKGLEWVSATSGSGGSIYYADSVKGRFTISRDNSKNTLYLQMNSLRAEDTAVYYCAKGGSQWLYAPGSWFDPWGQGTLVTVSS VL: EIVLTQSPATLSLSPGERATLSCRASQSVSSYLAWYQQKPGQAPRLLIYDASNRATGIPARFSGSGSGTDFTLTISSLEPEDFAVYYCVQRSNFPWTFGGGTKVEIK
A. 46
